# tested target: T1, MERS-CoV (NCoV/Novel coronavirus) Spike Protein S1 Protein (aa 1-725, His Tag) (Sino 40069-V08B1) (MERS-CoV, UniProt K9N5Q8 18-725)
# T1 sequence: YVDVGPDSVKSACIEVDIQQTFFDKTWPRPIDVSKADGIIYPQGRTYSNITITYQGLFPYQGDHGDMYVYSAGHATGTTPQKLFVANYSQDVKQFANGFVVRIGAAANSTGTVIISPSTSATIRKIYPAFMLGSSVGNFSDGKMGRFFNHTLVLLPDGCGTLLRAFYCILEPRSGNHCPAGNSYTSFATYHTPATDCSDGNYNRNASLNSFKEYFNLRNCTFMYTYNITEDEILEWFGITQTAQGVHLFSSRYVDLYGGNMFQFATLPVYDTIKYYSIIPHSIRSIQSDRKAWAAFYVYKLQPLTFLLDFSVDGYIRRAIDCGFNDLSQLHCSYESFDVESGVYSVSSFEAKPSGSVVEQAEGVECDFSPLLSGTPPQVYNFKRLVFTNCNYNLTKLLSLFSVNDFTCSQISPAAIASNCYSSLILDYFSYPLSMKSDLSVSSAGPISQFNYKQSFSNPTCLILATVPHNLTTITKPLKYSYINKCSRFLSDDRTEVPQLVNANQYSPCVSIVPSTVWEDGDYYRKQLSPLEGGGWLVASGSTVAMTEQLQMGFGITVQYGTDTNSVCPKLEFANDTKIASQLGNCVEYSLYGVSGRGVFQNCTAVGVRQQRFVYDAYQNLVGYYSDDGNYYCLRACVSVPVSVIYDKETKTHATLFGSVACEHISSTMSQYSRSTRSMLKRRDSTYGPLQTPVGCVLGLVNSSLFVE
# protocol: Luminex bead assay, supernatant

binder	Binding signal (MFI)
mAb10986 (antibody, V domains shown) VH: EVQLVESGGGLVQPGGSLRLSCAASEFTVSSNYMSWVRQAPGKGLEWVSVIYSGGSTFYADSVKGRFTISRDNSKNTLYLQMNSLRAEDTAVYYCARALPYGDLHFDYWGQGTLVTVSS VL: QSVLTQPPSVSGAPGQRVTISCTGSSSNIGTGYDVHWYQQLPGTAPKLLIYGNTNRPSGVPDRFSGSKSGTSASLAITGLQAEDEADYYCQSYDSSLSDSYVFGTGTKVTVLG	20
mAb10971 (antibody, V domains shown) VH: EVQLVESGGGLIQPGGSLRLSCAASGVTVSSNYMSWVRQAPGKGLEWVSVIYSGGSTFYSDSVKGRFSISRDNSKNTLYLQMNSLRAEDTAVYYCARDLYYYGMDVWGQGTTVTVSS VL: DIQLTQSPSFLSASVGDRVTITCRASQGISTYLAWYQQKPGKAPKLLIYAASTLQSGVPSRFSGSGSGTEFTLTISSLQPEDFATYYCQQLDSYPGLTFGGGTKVEIKR	19
mAb10920 (antibody, V domains shown) VH: QVQLVESGGGVVQPGRSLRLSCAASGFTFSYYGMHWVRQAPGKGLEWVAVIWYDGSNKFYADSVKGRFTISRDNSKNTLYLQMNSLRAEDTAVYYCAAARPGYYYGMDVWGQGTTVTVSS VL: DIQMTQSPSSLSASVGDRVTITCRASQGISNYLAWFQQKPGKAPNSLIYAASSLQRGVPSKFSGSGSGTDFTLTISSLQPEDFATYYCQQYNSYPRTFGQGTKVEIKR	27
